- Tested on: dopamine uptake
- assay text: DA (dopamine) uptake inhibition, synaptosomal preparation (striatum)
- Format: biochemical, rat (Male Sprague-Dawley)
- assay conditions: rat striatum synaptosomes, 0.1 μM tritiated amine, 37° C., 4 minutes
Counter-ions that a name gives are not always drawn.
reported metric: pIC50
# reply with the number alone; pIC50 is -log10 of concentration in mol/L

*Q* Recorded pIC50 of CCN1CC2c3cccc(OC)c3CCC2C1Cc1ccccc1 (stereo not drawn) [Example 23] , please.
*A* 6.85

*Q* Dear colleague, I am looking for the recorded pIC50 of the following compound: CN1CC2c3ccccc3CCC2C1Cc1cccc(F)c1 (stereo not drawn) [Example 16, hydrochloride]
*A* 6.36

*Q* Sample Cc1cccc(CC2C3CCc4ccccc4C3CN2C)c1 (stereo not drawn) [Example 12, hydrochloride] — what was its pIC50?
*A* 6.24
